- Tested On: UniProt P05181
- Method Notes: Inhibition of human CYP2E1 assessed as chlorzoxazone 6-hydroxylase activity at 20 mM after 72 hrs preincubation by HPLC analysis in presence of 1 mM NADPH and 5 mM glutathione (RVb = 100%)
- Format: ADME
- Design: scale not given: the % may be the effect or the level left
- Conditions: probe chlorzoxazone (6-hydroxylation), read-out: Activity
Quantity Measured: activity at 72 h, 20000 µM (%)
Field format: number, assumed %, no unit text.

Problem: Please give the documented activity at 72 h, 20000 µM of `CC(=O)Nc1cccc(O)c1`
Result: 91.3

* * *

- Tested On: CYP2E1 (Homo sapiens)
- Method Notes: Inhibition of human CYP2E1 assessed as chlorzoxazone 6-hydroxylase activity by HPLC analysis
- Format: ADME
- Conditions: human, probe chlorzoxazone (6-hydroxylation)
Quantity Measured: kinact (s⁻¹)
Field format: number, assumed s⁻¹, no unit text.

Problem: Please give the documented kinact of `CC(=O)Nc1cccc(O)c1`
Result: 0.000133

* * *

- Tested On: CYP2E1 (Homo sapiens, UniProt P05181)
- Sequence (P05181 whole entry): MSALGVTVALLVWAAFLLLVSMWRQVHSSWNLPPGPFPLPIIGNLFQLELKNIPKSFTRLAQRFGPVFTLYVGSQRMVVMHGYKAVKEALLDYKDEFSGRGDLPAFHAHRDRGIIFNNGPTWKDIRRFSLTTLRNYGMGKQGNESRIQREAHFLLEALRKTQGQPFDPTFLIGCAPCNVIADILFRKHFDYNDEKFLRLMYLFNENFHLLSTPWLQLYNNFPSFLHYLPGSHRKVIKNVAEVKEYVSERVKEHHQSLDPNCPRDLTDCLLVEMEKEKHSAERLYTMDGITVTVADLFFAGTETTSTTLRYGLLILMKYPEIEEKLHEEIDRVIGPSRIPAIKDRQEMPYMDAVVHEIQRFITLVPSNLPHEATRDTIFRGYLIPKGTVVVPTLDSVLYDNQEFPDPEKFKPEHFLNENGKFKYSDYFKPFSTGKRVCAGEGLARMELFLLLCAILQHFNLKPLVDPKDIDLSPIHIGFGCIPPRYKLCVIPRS
- Method Notes: Inhibition of human CYP2E1 assessed as chlorzoxazone 6-hydroxylase activity at 20 mM after 72 hrs preincubation by HPLC analysis (RVb = 100%)
- Format: ADME
- Set-up: scale not given: the % may be the effect or the level left
- Conditions: probe chlorzoxazone (6-hydroxylation), read-out: Activity
Quantity Measured: activity at 72 h, 20000 µM (%)
Field format: number, assumed %, no unit text.

Problem: Please give the documented activity at 72 h, 20000 µM of `CC(=O)Nc1cccc(O)c1`
Result: 89.3

* * *

- Tested On: CYP2E1 (Homo sapiens, UniProt P05181)
- Method Notes: Inhibition of human CYP2E1 assessed as chlorzoxazone 6-hydroxylase activity at 40 mM after 72 hrs preincubation by HPLC analysis in presence of 1 mM NADPH (RVb = 100%)
- Assay type: ADME
- Design: scale not given: the % may be the effect or the level left
- Conditions: probe chlorzoxazone (6-hydroxylation), read-out: Activity
Quantity Measured: activity at 72 h, 40000 µM (%)
Field format: number, assumed %, no unit text.

Problem: Please give the documented activity at 72 h, 40000 µM of CC(=O)Nc1cccc(O)c1 [METACETAMOL]
Result: 43.7

* * *

- Tested On: UniProtKB P05181
- Method Notes: Inhibition of human CYP2E1 assessed as chlorzoxazone 6-hydroxylase activity at 20 mM after 72 hrs preincubation by HPLC analysis in presence of 1 mM NADPH (RVb = 100%)
- Format: ADME
- Set-up: scale not given: the % may be the effect or the level left
- Conditions: probe chlorzoxazone (6-hydroxylation), read-out: Activity
Quantity Measured: activity at 72 h, 20000 µM (%)
Field format: number, assumed %, no unit text.

Problem: Please give the documented activity at 72 h, 20000 µM of `CC(=O)Nc1cccc(O)c1`
Result: 64.8

* * *

- Tested On: UniProtKB P05181
- Method Notes: Inhibition of human CYP2E1 assessed as chlorzoxazone 6-hydroxylase activity at 40 mM after 72 hrs preincubation by HPLC analysis (RVb = 100%)
- Type: ADME
- Set-up: scale not given: the % may be the effect or the level left
- Conditions: probe chlorzoxazone (6-hydroxylation), read-out: Activity
Quantity Measured: activity at 72 h, 40000 µM
Entry format: amount then unit.

Problem: Please give the documented activity at 72 h, 40000 µM of CC(=O)Nc1cccc(O)c1 [METACETAMOL]
Result: 65.7%
